# test-system: T1, Aβ1-42 polypeptide (human)
# T1 construct: Synthetic peptide; also called Aβ1-42 monomer; Aβ monomer
# T1 sequence (peptide, as listed by the source): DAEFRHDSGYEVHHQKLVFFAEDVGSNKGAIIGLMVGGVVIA
# assay-remarks: SPR, Biacore T200, antibody captured on Protein A chip, human Aβ antigen as analyte
# Experimental: Biacore-T200 detection was performed, ProteinA chip was used to capture candidate antibodies or positive antibodies, different concentrations of human Aβ antigen were used to flow through the chip, and the fitting analysis was performed based on the collected data. […] The detection conditions were: capture time: 30 s; antigen binding time: 120 s; dissociation time: 900 s; flow rate: 30 μl/min. And the regeneration conditions were: 20 mM NaOH solution, flow rate: 30 μl/min.
assay-endpoint: kon (M⁻¹ s⁻¹)
Write the number in M⁻¹ s⁻¹ without appending the unit.

What measured kon goes with 066-4.26.14H5L2 (antibody, human IgG1, V domains shown, Humanized full-length antibody; human IgG1 heavy constant and human kappa light constant (vectors pGS003-hIgG1CH, pGS003-hIgKCL)) VH: EVQLVESGGGLVQPGGSLRLSCVASGFTFRSYAMSWVRQAPGKGLEWVASISTTSNTYYPDSVKGRFTTSRDNSKNTVYLQMSSLRAEDTAVYYCGRGVITNQAWFAYWGQGTLVTVSS VL: DIVLTQSPATLSVSPGERATLSCRASQSISNNLHWYQQKPGQAPRLLIKYASQSISGIPARFSGSGSGTDFTLTISSLQSEDFAVYFCQQSNSWPLTFGGGTKVEIKR ?
13400

Check 066-4.26.14H2L2 (antibody, human IgG1, V domains shown, Humanized full-length antibody; human IgG1 heavy constant and human kappa light constant (vectors pGS003-hIgG1CH, pGS003-hIgKCL)) VH: EVQLVESGGGLVKPGGSLRLSCAASGFTFRSYAMSWVRQTPEKRLEWVASISTTSNTYYPDSVKGRFTTSRDNAKNSVYLQMSSLRAEDTAVYYCGRGVITNQAWFAYWGQGTTVTVSS VL: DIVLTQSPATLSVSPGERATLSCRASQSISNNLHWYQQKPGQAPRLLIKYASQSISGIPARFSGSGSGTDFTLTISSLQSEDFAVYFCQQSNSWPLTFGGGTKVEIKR too.
19200

Check 066-4.26.14H5L3 (antibody, human IgG1, V domains shown, Humanized full-length antibody; human IgG1 heavy constant and human kappa light constant (vectors pGS003-hIgG1CH, pGS003-hIgKCL)) VH: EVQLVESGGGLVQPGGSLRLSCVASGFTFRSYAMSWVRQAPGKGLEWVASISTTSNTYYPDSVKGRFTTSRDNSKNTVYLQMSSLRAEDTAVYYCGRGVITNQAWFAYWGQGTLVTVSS VL: DIVLTQSPDFQSVTPKEKVTISCRASQSISNNLHWYQQKPDQSPKLLIKYASQSISGIPSRFSGSGSGTDFTLTINSLEAEDAAAYFCQQSNSWPLTFGPGTKVEIKR too.
14200

Origin of the recorded values: patent US20220242936A1
